Biological target: Prostaglandin D2 receptor 2 (Homo sapiens, UniProt Q9Y5Y4)
Sequence (Q9Y5Y4 whole entry): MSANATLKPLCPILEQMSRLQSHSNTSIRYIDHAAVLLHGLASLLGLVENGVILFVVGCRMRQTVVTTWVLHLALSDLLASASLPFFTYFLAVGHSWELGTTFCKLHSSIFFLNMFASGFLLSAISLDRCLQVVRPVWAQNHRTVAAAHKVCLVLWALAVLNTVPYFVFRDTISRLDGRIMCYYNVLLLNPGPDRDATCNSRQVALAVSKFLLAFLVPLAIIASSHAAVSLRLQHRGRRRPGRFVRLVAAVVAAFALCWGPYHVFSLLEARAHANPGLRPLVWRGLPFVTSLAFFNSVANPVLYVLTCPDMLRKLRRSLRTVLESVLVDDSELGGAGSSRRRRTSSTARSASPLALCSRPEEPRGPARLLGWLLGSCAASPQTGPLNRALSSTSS
Test: Displacement of [3H]-PGD2 from human prostanoid DP2 receptor expressed in human 293T cells by liquid scintillation counting
Format: cell-based
Give measured IC50 for each item. Keep answers brief.
Note: state the figure and append the unit.

Give one value of IC50 per listed molecule.
1. CCN(Cc1cc(C(F)(F)F)ccc1-c1cc(CC(=O)O)ccc1OC)C(=O)OC
2. COc1ccc(CC(=O)O)cc1-c1ccc(F)cc1CN1C(=O)O[C@H](c2ccccc2)[C@@H]1C
3. C[C@H]1[C@@H](c2ccccc2)OC(=O)N1Cc1cc(C(F)(F)F)ccc1-c1ccccc1CCC(=O)O
4. CCN(Cc1cc(C(F)(F)F)ccc1-c1cc(CC(=O)O)ccc1OC)C(=O)OCc1ccc(Cl)cc1

A.
1. 9 nM
2. 360 nM
3. 11000 nM
4. 3 nM

Give one value of IC50 per listed molecule.
1. C[C@H]1[C@@H](c2ccccc2)OC(=O)N1Cc1cc(F)ccc1-c1ccc(CC(=O)O)cc1
2. COc1ccc(CC(=O)O)cc1-c1ccc(C(F)(F)F)cc1CNCCc1ccccc1
3. CCN(Cc1cc(C(F)(F)F)ccc1-c1cc(CC(=O)O)ccc1OC)C(=O)OCc1ccccc1Cl

A.
["360 nM", "3400 nM", "3 nM"]

Give one value of IC50 per listed molecule.
1. CCN(Cc1cc(C(F)(F)F)ccc1-c1cc(CC(=O)O)ccc1OC)C(=O)OCc1cc(F)cc(F)c1
2. C[C@H]1[C@@H](c2ccccc2)OC(=O)N1Cc1cc(C(F)(F)F)ccc1-c1cccc(CCC(=O)O)c1

A.
["3 nM", "9800 nM"]

* * *

Give measured pIC50 for each item. Keep answers brief.
target: Prostacyclin receptor (Homo sapiens); assay: Displacement of [3H]-iloprost from human prostanoid IP receptor expressed in human 293T cells membranes
Sequence (P43119 whole entry): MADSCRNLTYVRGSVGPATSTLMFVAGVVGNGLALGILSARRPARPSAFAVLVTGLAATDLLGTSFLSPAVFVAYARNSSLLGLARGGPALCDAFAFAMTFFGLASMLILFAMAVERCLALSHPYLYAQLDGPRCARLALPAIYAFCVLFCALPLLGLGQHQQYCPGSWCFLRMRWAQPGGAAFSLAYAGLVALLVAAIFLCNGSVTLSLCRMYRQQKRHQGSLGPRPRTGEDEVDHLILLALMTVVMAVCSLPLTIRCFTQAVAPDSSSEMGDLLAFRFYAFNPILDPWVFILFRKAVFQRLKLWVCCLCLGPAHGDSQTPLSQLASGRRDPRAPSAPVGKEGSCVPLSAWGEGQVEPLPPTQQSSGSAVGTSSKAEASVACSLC
Answers are plain numbers, as −log10 of the molar value.

CCN(Cc1cc(C(F)(F)F)ccc1-c1cc(CC(=O)O)ccc1OC)C(=O)OCc1ccccc1    4.25

Q. Give pIC50 for this entry on Prostacyclin receptor (Homo sapiens): "CCN(Cc1cc(C(F)(F)F)ccc1-c1cc(CC(=O)O)ccc1OC)C(=O)OCc1ccc(Cl)cc1"
A. 4.48

* * *

pIC50: −log10 of the molar value.
Quick record: pIC50, UniProtKB P08684.
Sequence (P08684 whole entry): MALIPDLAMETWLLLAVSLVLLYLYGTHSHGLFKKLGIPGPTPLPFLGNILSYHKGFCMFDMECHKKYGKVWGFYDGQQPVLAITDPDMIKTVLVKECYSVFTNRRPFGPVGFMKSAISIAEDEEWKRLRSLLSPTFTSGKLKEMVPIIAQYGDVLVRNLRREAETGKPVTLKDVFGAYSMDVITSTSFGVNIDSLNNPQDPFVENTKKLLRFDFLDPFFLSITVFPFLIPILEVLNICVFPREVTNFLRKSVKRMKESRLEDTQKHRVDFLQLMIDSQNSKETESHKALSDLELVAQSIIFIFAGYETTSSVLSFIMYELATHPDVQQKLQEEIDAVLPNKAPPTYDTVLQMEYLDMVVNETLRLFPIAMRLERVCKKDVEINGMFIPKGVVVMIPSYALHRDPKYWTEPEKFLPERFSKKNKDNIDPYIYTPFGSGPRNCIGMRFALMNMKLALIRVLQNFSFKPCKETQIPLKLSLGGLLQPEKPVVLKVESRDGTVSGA

CCN(Cc1cc(C(F)(F)F)ccc1-c1cc(CC(=O)O)ccc1OC)C(=O)OC    < 4.52

As a next step, examine the molecule that follows.
Q. Fill in reported pIC50 for this entry: "COc1ccc(CC(=O)O)cc1-c1ccc(C(F)(F)F)cc1CN1C(=O)O[C@H](c2ccccc2)[C@@H]1C"
A. < 4.52

* * *

molecular target: Prostaglandin D2 receptor 2 (Homo sapiens); assay: Displacement of [3H]-PGD2 from human prostanoid DP2 receptor expressed in human 293T cells by liquid scintillation counting in presence of 0.2 % human serum albumin; format: cell-based
Give measured pIC50 for each item. Keep answers brief.
Numbers only, as −log10 of the molar value.

Worked examples, 2 compounds total:
CCN(Cc1cc(C(F)(F)F)ccc1-c1cc(CC(=O)O)ccc1OC)C(=O)OCc1ccc(Cl)cc1    8.15
COc1ccc(CC(=O)O)cc1-c1ccc(C(F)(F)F)cc1CNCCc1ccccc1    4.96

Q. Give pIC50 for this entry on Prostaglandin D2 receptor 2 (Homo sapiens): "CCN(Cc1cc(C(F)(F)F)ccc1-c1cc(CC(=O)O)ccc1OC)C(=O)OC"
A. 7.80

* * *

target: Thromboxane A2 receptor (Homo sapiens, UniProt P21731); test: Displacement of [3H]-SQ-29,548 from human TP receptor expressed in human platelet membranes
Sequence (P21731 whole entry): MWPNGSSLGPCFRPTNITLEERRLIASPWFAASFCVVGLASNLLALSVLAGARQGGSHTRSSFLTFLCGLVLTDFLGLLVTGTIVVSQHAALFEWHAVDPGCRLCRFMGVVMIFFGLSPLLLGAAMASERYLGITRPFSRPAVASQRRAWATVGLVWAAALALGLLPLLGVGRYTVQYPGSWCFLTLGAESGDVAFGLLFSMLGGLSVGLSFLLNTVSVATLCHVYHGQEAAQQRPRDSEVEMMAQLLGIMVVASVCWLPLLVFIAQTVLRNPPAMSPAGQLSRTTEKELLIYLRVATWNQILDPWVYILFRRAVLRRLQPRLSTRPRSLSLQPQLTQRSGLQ
Give measured IC50 for each item. Keep answers brief.
Numbers only, in µM.

Worked examples, 4 molecules total:
CCN(Cc1cc(C(F)(F)F)ccc1-c1cc(CC(=O)O)ccc1OC)C(=O)OC    67.4
CCN(Cc1cc(C(F)(F)F)ccc1-c1cc(CC(=O)O)ccc1OC)C(=O)OCc1ccccc1    23
COC(=O)N(Cc1ccccc1)Cc1cc(C(F)(F)F)ccc1-c1cc(CC(=O)O)ccc1OC    62.4
COc1ccc(CC(=O)O)cc1-c1ccc(C(F)(F)F)cc1CN1C(=O)O[C@H](c2ccccc2)[C@@H]1C    63.7

Q. Fill in reported IC50 for this entry: "CCN(Cc1cc(C(F)(F)F)ccc1-c1cc(CC(=O)O)ccc1OC)C(=O)OCc1ccc(Cl)cc1"
A. 11.3

* * *

experiment: Oral bioavailability in dog at 5 mg/kg; format: ADME, organism-based, Canis lupus familiaris; details: in vivo
measurement-label: bioavailability (%)
Give bare numbers, in %.

Q. Fill in reported bioavailability for this entry: "CCN(Cc1cc(C(F)(F)F)ccc1-c1cc(CC(=O)O)ccc1OC)C(=O)OCc1ccccc1"
A. 89

src = ChEMBL document CHEMBL1914441
